Entries and their hERG current change (%, negative = inhibition) at 10uM values follow.
# Measured on: human ether-à-go-go-related gene (hERG) potassium channel (human)
# Experimental details: primary screen, population patch clamp on CHO cells stably expressing hERG; higher = less effect of the substance;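 further: peak tail current of the secondary pulse compared with the same well before compound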
Out of some 310,000 compounds screened, about 14,000 (4.5%) showed an effect of 50% or more. The effect is printed as a negative number. The sample holds strong results, similar compounds and a random draw of the others, so the mix is not that of the screen.
Give just the numeric value; % need not be written.

Would you please look over these solved cases?
{"columns": ["Compound", "Measured on", "Measurement"],
 "data": [
  ["CCOC(=O)C1CCN(C(C)C(=O)c2c(C)[nH]c3cc(C)ccc23)CC1 (stereo not drawn)", "human ether-à-go-go-related gene (hERG) potassium channel (human)", -76.7],
  ["N#CCC(=O)Nc1ncn(Cc2ccccc2Cl)n1", "human ether-à-go-go-related gene (hERG) potassium channel (human)", 15.4]
]}

The compound listed as `Cc1ccc2c(C(=O)CN3CCCC3)c(C)[nH]c2c1` shows hERG current change (%, negative = inhibition) at 10uM equal to -6.89

====

Some compounds, each annotated with its measured hERG current change (%, negative = inhibition) at 10uM.
# Measured on: human ether-à-go-go-related gene (hERG) potassium channel (human, UniProt Q12809)
# Sequence (Q12809 whole entry, looked up): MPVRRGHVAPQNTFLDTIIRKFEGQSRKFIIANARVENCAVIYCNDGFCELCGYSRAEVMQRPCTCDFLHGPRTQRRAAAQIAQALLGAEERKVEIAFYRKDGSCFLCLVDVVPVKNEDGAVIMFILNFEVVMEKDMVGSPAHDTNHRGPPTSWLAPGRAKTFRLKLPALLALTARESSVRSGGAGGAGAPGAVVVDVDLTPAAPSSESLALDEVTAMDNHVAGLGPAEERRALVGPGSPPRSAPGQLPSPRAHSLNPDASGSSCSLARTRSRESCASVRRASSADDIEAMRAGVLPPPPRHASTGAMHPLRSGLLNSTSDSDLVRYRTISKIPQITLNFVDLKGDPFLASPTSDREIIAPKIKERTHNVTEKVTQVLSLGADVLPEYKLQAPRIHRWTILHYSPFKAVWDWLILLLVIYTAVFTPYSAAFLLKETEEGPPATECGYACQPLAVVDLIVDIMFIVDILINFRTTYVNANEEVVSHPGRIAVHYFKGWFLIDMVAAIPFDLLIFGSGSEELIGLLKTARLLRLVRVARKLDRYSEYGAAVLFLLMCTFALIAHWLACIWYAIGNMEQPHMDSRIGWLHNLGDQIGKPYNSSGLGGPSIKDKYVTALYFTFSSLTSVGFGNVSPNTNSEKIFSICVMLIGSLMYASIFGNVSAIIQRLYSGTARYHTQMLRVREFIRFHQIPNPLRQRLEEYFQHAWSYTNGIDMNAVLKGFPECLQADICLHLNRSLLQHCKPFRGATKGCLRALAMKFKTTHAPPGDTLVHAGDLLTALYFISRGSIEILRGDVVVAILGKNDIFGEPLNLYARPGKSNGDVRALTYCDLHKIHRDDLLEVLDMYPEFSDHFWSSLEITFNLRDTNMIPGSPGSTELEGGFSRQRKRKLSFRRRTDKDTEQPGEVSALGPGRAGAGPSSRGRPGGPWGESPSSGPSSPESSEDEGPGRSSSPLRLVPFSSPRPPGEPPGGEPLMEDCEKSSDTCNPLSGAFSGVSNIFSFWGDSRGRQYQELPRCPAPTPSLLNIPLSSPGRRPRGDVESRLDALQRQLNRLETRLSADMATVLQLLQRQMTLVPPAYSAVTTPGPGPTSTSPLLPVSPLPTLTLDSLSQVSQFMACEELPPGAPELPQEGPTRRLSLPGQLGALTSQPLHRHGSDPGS
# Experimental details: primary screen, population patch clamp on CHO cells stably expressing hERG; higher = less effect of the substance
Among all 310,000 compounds or so, about 14,000 (4.5%) showed an effect of 50% or more. The effect is printed as a negative number. What follows is part of a selection rich in strong results, with near analogues and random picks from the rest.
Please state the figure in %; there is no need to write the unit.

{"columns": ["Compound", "Measurement"],
 "data": [
  ["CC1=C(C(=O)N2CCCCCC2)C2(CCC(C)CC2)OC1=O (stereo not shown)", 2.11],
  ["Cc1ccc(C)c(NC(=S)N2CCC(NC(=O)C3CCCCC3)CC2)c1", 4.41],
  ["Cc1ccc(N2C(=O)CC(C)CC2=O)cc1", 21.2],
  ["COC(=O)c1ccc(Sc2ccccc2NS(=O)(=O)c2ccc(OC)cc2)nc1", 9.67],
  ["COc1ccccc1NC(=O)CCCN1C(=O)C2CC=CCC2C1=O (stereo not shown)", 11.1]
]}

In plain terms, `O=C(c1cccnc1)N1c2ccccc2Sc2ccccc21` has a documented hERG current change (%, negative = inhibition) at 10uM of -18.1

Form: compound = `CCN(CC(=O)Nc1cc(Cl)ccc1C)C(=O)CN1C(=O)NC2(CCCC2)C1=O` ; hERG current change (%, negative = inhibition) at 10uM = 8.3

Given item `Cc1cc2oc(=O)cc(C)c2cc1NC(=O)CCC(=O)O` , the value recorded as its hERG current change (%, negative = inhibition) at 10uM is 7.75

Kindly note the recorded hERG current change (%, negative = inhibition) at 10uM for `O=C(Cn1cnc2cc([N+](=O)[O-])ccc2c1=O)Nc1cccc2ccccc12` , which is -5.73

Record CC1Oc2ccccc2N(CC(=O)N(Cc2ccccc2)Cc2ccccn2)C1=O (stereo not shown) , field hERG current change (%, negative = inhibition) at 10uM: 0.288

====

hERG current change (%, negative = inhibition) at 10uM values by entry
# Measured on: human ether-à-go-go-related gene (hERG) potassium channel (human, UniProt Q12809)
# Experimental details: primary screen, population patch clamp on CHO cells stably expressing hERG; higher = less effect of the substance
Screen size: about 310,000 compounds; about 14,000 (4.5%) showed an effect of 50% or more. The effect is printed as a negative number. The list comes from a sample in which strong results are over-represented; it also holds close analogues and randomly drawn compounds.
A number alone suffices; assume %.

{"columns": ["Compound", "Measurement"],
 "data": [
  ["COc1ccccc1C/C(N)=N/OC(=O)COc1ccc(C)cc1C", 17.4]
]}

# hERG current change (%, negative = inhibition) at 10uM (compound: `CCc1ccc(-c2cc3c(=O)n(CC(=O)NCCCN4CCN(C)CC4)ncn3n2)cc1` ) is -4.24

Input `COc1ccc(C(=O)NCCc2nc3cc([N+](=O)[O-])ccc3n2C)cc1` . Output hERG current change (%, negative = inhibition) at 10uM: -39.9

====

Each entry below carries its reported hERG current change (%, negative = inhibition) at 10uM.
# Measured on: human ether-à-go-go-related gene (hERG) potassium channel (human)
# Experimental details: primary screen, population patch clamp on CHO cells stably expressing hERG; higher = less effect of the substance
The campaign covered roughly 310,000 compounds. About 14,000 (4.5%) showed an effect of 50% or more. Effects have a minus sign here. Shown is part of a subset that was picked to be rich in strong results.
// units = %; emit number, no label

As a guide, the following entries are already answered.
{"columns": ["Compound", "Units", "Measurement"],
 "data": [
  ["O=C(CCOc1ccccc1)Nc1ccnn1C1CCN(Cc2ccccc2)CC1", "%", -50],
  ["CCOc1ccc(/C(O)=C2/C(=O)C(=O)N(c3cc(C)on3)C2c2ccc(C(=O)OC)cc2)cc1 (stereo not shown)", "%", 11.3],
  ["CCN(CC(=O)NC(C)C)C(=O)[C@@H](NC(=O)c1ccco1)C(C)C", "%", 11.5]
]}

Turning now to a further record.
// hERG current change (%, negative = inhibition) at 10uM value for `COc1ccccc1NC(=O)Nc1nn(C)c2cccc(N(C)C)c12` : 11

====

# Measured on: human ether-à-go-go-related gene (hERG) potassium channel (human, UniProt Q12809)
# Experimental details: primary screen, population patch clamp on CHO cells stably expressing hERG; higher = less effect of the substance
Screen size: about 310,000 compounds; about 14,000 (4.5%) showed an effect of 50% or more. The effect is printed as a negative number. Many of the other results were omitted from the sample, so strong results are more common in it than they were.
Label rule, in plain words: hERG current change (%, negative = inhibition) at 10uM of -10% and up is MET, under -10% is NOT MET.

# count of solved cases: 4
{"columns": ["Compound", "Answer label"],
 "data": [
  ["O=[N+]([O-])c1cccc(NC(=S)NCc2ccncc2)c1", "MET"],
  ["Cc1nn(Cc2ccc(Cl)cc2)c(C)c1NC(=O)c1cc(-c2ccc3c(c2)OCO3)on1", "MET"],
  ["Cc1ccc(CSc2nnc(-c3cccc(S(=O)(=O)N4CCOCC4)c3)n2CC(C)C)cc1", "NOT MET"],
  ["O=C(OCc1ccccc1)N1CCOCCN(C(=O)OCc2ccccc2)CCOCC1", "NOT MET"]
]}

**Query** Does `O=C(NCC(=O)N1CCOCC1)OCc1ccccc1` have a reported hERG current change (%, negative = inhibition) at 10uM of at least -10%?
**Result** NOT MET

**Query** Decide: hERG current change (%, negative = inhibition) at 10uM of `CC(C)Cn1c(SCC(=O)NCc2ccc(Cl)cc2)nnc1-c1cccc(S(=O)(=O)N2CCOCC2)c1` >= -10%?
**Result** NOT MET

**Query** In plain terms: is recorded hERG current change (%, negative = inhibition) at 10uM at least -10% for Cc1cc(NC(=O)CCC(=O)N(CC(=O)NCC2CCCO2)c2ccc(C)c(C)c2)no1 (centres unmarked) ?
**Result** MET

**Query** Given the entry `Cc1ccc(S(=O)(=O)N2CCOCC2)cc1NC(=O)CSc1ccc(Cl)cc1` , answer whether its hERG current change (%, negative = inhibition) at 10uM meets or surpasses -10%.
**Result** NOT MET

**Query** Is it the case that `O=C(c1ccc(S(=O)(=O)c2ccccc2Cl)c([N+](=O)[O-])c1)N1CCCCCC1` has hERG current change (%, negative = inhibition) at 10uM reaching or exceeding -10%?
**Result** NOT MET

====

# Measured on: human ether-à-go-go-related gene (hERG) potassium channel (human, UniProt Q12809)
# Experimental details: primary screen, population patch clamp on CHO cells stably expressing hERG; higher = less effect of the substance
Among all 310,000 compounds or so, about 14,000 (4.5%) showed an effect of 50% or more. The effect is printed as a negative number. The list comes from a sample in which strong results are over-represented; it also holds close analogues and randomly drawn compounds.
Recorded measurements of hERG current change (%, negative = inhibition) at 10uM, one per entry
Just the number in %, nothing appended.

# compound `CC(=O)c1ccc(OCC(=O)Nc2c(C)nn(-c3ccccc3)c2C)cc1` ; its hERG current change (%, negative = inhibition) at 10uM = -2.73

Reported hERG current change (%, negative = inhibition) at 10uM ( CC(=O)NC(CC(=O)OCc1ccc([N+](=O)[O-])cc1)c1ccccc1 (stereo not drawn) ) = -63.1

Reported hERG current change (%, negative = inhibition) at 10uM of `Cc1ccc(N/C=C(\C#N)S(=O)(=O)c2ccccc2)cc1` : 14.3

Per the record, `CC(=O)Nc1ccc(S(=O)(=O)NCCC(=O)OCc2ccc([N+](=O)[O-])cc2)cc1` has hERG current change (%, negative = inhibition) at 10uM of -57.4

The recorded hERG current change (%, negative = inhibition) at 10uM for entry `Cc1ccc(S(=O)(=O)NCCC(=O)OCc2ccc([N+](=O)[O-])cc2)cc1C` equals -42.3

Every entry's value here was drawn from paper PMC4336329.
